From: patent US11141452B2

Target: MOR
Assay: Radioligand binding assay at μ opioid receptor
Non-standard residues stand in square brackets, D forms with d. Residues, ends and D or L forms follow the SMILES beside them. *: point of attachment. NH(3,5-(CF3)2-benzyl) = FC(F)(F)c1cc(CN*)cc(C(F)(F)F)c1; NMePhe(4-F) = CN[C@@H](Cc1ccc(F)cc1)C(=O)O; Dmt = Cc1cc(O)cc(C)c1C[C@H](N)C(=O)O; NMeF = CN[C@@H](Cc1ccccc1)C(=O)O
Exercise: for every item that follows, state its recorded Ki.

Ki for CC(C)C[C@H](NC(=O)[C@@H]1CCCN1C(=O)[C@H](CO)NC(=O)[C@H](Cc1ccc(F)cc1)N(C)C(=O)CNC(=O)[C@@H](C)NC(=O)[C@@H](N)Cc1ccc(O)cc1)C(=O)N[C@@H](Cc1c[nH]c2ccccc12)C(=O)NCc1cc(C(F)(F)F)cc(C(F)(F)F)c1 [AKG134] (H-Y[dA]G[NMePhe(4-F)]SPLW-{NH(3,5-(CF3)2-benzyl)}) is 2 nM

// field: Ki; key: `Cc1cc(O)cc(C)c1C[C@H](N)C(=O)N[C@H](C)C(=O)NCC(=O)N[C@@H](Cc1ccc(Br)cc1)C(=O)N1CCC[C@H]1C(=O)N[C@@H](CC(C)C)C(=O)N[C@@H](Cc1c[nH]c2ccccc12)C(=O)NCc1cc(C(F)(F)F)cc(C(F)(F)F)c1` ; value = 5 nM

So, Cc1cc(O)cc(C)c1C[C@H](N)C(=O)N[C@H](C)C(=O)NCC(=O)N(C)[C@@H](Cc1ccccc1)C(=O)N[C@@H](CO)C(=O)N1CCC[C@H]1C(=O)N[C@@H](CC(C)C)C(=O)N[C@@H](Cc1c[nH]c2ccccc12)C(=O)NCc1cc(C(F)(F)F)cc(C(F)(F)F)c1 [AKG132] (H-[Dmt][dA]G[NMeF]SPLW-{NH(3,5-(CF3)2-benzyl)}) ? Its Ki was 0.4 nM
